Sourced from PubChem BioAssay (NCI)

tested on: SF-539 CNS; assay: NCI tumour cell line growth inhibition, 48 h
readout.label: TGI

[[record]]
compound = "O=[N+]([O-])c1ccc(-c2nnc(C34CC5CC(CC(C5)C3)C4)o2)cc1"
experimental_system = "SF-539 CNS"
reported_result = "> 100 µM"

[[record]]
compound = "COc1cc(OC)c2c(c1)C(=O)C(CC(C)O)=CC2=O (stereo not drawn)"
experimental_system = "SF-539 CNS"
reported_result = "32.5 µM"

[[record]]
compound = "Cc1ccc(C(=O)c2nnc(C(=O)c3ccc(C)cc3)nn2)cc1"
experimental_system = "SF-539 CNS"
reported_result = "> 100 µM"


###

tested on: UACC-62 melanoma; experiment: NCI tumour cell line growth inhibition, 48 h
readout.label: TGI

[[record]]
molecule = "O=c1c2nn3c(=O)n(-c4ccccc4)c(=O)c3nn2c(=O)n1-c1ccccc1"
readout_label = "TGI"
reported_result = "> 100 µM"

[[record]]
molecule = "CC#C[C@]1(O)CC[C@H]2[C@@H]3CCC4=CC(=O)CCC4=C3[C@@H](c3ccc4c(c3)OCO4)C[C@@]21C"
readout_label = "TGI"
reported_result = "204 µM"

[[record]]
molecule = "CSc1ccc(C2OC(=O)c3ccccc32)c2ccccc12 (stereo not given)"
readout_label = "TGI"
reported_result = "> 100 µM"

[[record]]
molecule = "CCCCCCCCCCCC(=O)OCC1OC(n2cc(F)c(=O)[nH]c2=O)C(NC(=O)OCc2ccccc2)C(OC(=O)CCCCCCCCCCC)C1O (stereo not given)"
readout_label = "TGI"
reported_result = "> 100 µM"

[[record]]
molecule = "S=c1sc2c(s1)SCCCCSCCCCSc1sc(=S)sc1SCCCCSCCCCS2"
readout_label = "TGI"
reported_result = "> 100 µM"

[[record]]
molecule = "CCc1ccccc1NC(=O)C(=O)CC(=O)c1sc(Nc2ccccc2)nc1C"
readout_label = "TGI"
reported_result = "> 100 µM"

[[record]]
molecule = "O=C1C(Cl)=C(OCCCCl)C(=O)c2c(O)ccc(O)c21"
readout_label = "TGI"
reported_result = "3.9 µM"

[[record]]
molecule = "O=c1/c(=C/c2ccccc2F)sc2nc3ccccc3n12"
readout_label = "TGI"
reported_result = "> 100 µM"

[[record]]
molecule = "COc1cc(C2C(C(=O)O)=C(CO)Oc3cc4c(cc32)OCO4)cc(OC)c1O (stereo not given)"
readout_label = "TGI"
reported_result = "> 100 µM"

[[record]]
molecule = "CCOC(=O)C(=[N+]=[N-])C(=O)C1(C(=O)OCC)CCN(C(=O)c2ccccc2)C1=O (stereo not given)"
readout_label = "TGI"
reported_result = "> 100 µM"


###

tested on: UACC-62 melanoma; assay: NCI tumour cell line growth inhibition, 48 h
TGI by entry:
readout.label: TGI

[[record]]
molecule = "NC(=O)NNc1nc2ccccc2c(=O)n1NC(=O)C(=O)Nc1ccc(Cl)cc1Cl"
reported_result = "> 100 µM"

[[record]]
molecule = "CCCCC(CC)CN=C(N)NC(N)=NCCCCCCN=C(N)NC(N)=NCC(CC)CCCC (configuration not stated)"
reported_result = "4.12 µM"

[[record]]
molecule = "O=C(CCCN1CCC2(CC1)OC(=O)N(c1ccccc1)C2=O)c1ccccc1"
reported_result = "> 100 µM"

[[record]]
molecule = "COc1cccc(-n2ncc3c(N/N=C/c4ccc(C(=O)NCCN(C)C)cc4)ncnc32)c1"
reported_result = "7.39 µM"

[[record]]
molecule = "CCOC(=O)N(Cc1cccs1)c1cc(OC)c(OC)c(OC)c1"
reported_result = "> 100 µM"

[[record]]
molecule = "CC(C)[C@H]1CO[C@]2(C)[C@@H]3CN(Cc4ccccc4)C[C@@H]3C(=O)N12"
reported_result = "> 100 µM"

[[record]]
molecule = "COc1ccc(OC)c(NC(=O)C2=C(C)NC(C)=C(C(=O)Nc3cc(OC)ccc3OC)C2c2ccccc2)c1"
reported_result = "> 100 µM"

[[record]]
molecule = "CCCCCCCCCCCC(=O)Oc1c(Cl)cc(Cl)c(OC(=O)C(=O)Oc2c(Cl)cc(Cl)c(OC(=O)CCCCCCCCCCC)c2Cl)c1Cl"
reported_result = "> 100 µM"

[[record]]
molecule = "Cc1nc(N)nc(N)c1-c1ccc(Cl)c(Cl)c1"
reported_result = "> 51.1 µM"

[[record]]
molecule = "CNC(=O)OC(C)CN1c2ccccc2Sc2ccc(Cl)cc21 (configuration not stated)"
reported_result = "> 10 µM"

[[record]]
molecule = "CC(=O)OCC1OC(SC2=N/C(=C\\c3cc4c(=O)c5ccccc5sc4s3)C(=O)N2c2ccccc2)C(OC(C)=O)C(OC(C)=O)C1OC(C)=O (configuration not stated)"
reported_result = "> 100 µM"

[[record]]
molecule = "CC12CCC(CC1=O)C2(C)CCC(N)=O (configuration not stated)"
reported_result = "> 100 µM"

[[record]]
molecule = "COc1cc(C=C2C(C)=NN(c3cccc(Cl)c3)C23SCC(=O)N3c2nc3ccccc3s2)ccc1O (configuration not stated)"
reported_result = "96.1 µM"

[[record]]
molecule = "O=C1C=C2C(=NC34CCCCC3C(c3ccccc3)C3=C(c5ccccc5CC3)N24)c2ccccc21 (configuration not stated)"
reported_result = "> 10 µM"

[[record]]
molecule = "Cc1cc(N(CCCl)CCCl)ccc1C=Nc1ccc(-c2csc(Cc3ccccc3)n2)cc1"
reported_result = "16 µM"

[[record]]
molecule = "COc1cc(/C=C/c2cc(O)c3cc(C(C)=O)c(=O)oc3c2)cc2c1O[C@]1(C)CC[C@@H](O)C(C)(C)[C@H]1C2"
reported_result = "> 27.8 µM"

[[record]]
molecule = "COC(=O)C(CC12CC3CC(CC(C3)C1)C2)NC(=O)C(N)CC(=O)O (configuration not stated)"
reported_result = "> 100 µM"

